Biological target: T1, human ActRIIB (human, UniProt Q13705 19-137, limits assumed)
T1 construct: antigen in MSD-SET; also called ACVR2B; ActR2B
T1 sequence: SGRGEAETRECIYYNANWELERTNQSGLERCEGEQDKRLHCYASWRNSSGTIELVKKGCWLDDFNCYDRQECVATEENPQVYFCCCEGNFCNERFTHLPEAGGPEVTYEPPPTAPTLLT
Assay: MSD-SET; Fab, not IgG
endpoint: pKd
Scale: negative log10 of molar concentration, which is what pKd denotes.

Ask | # get_value(readout='pKd', item= Riaba Fab (Fab, V domains shown, Fab) VH: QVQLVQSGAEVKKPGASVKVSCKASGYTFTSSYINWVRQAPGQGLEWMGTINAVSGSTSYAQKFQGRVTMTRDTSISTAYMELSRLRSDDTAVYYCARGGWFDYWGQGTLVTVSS VL: QSALTQPASVSGSPGQSITISCTGTSSDVGSYNYVNWYQQHPGKAPKLMIYGVSKRDSGVSNRFSGSKSGNTASLTISGLQAEDEADYYCGTFAGGKYYGVFGGGTKLTVL )
Reply | 8.80

Ask | Consider the binder Wurschdsalat Fab (Fab, V domains shown, Fab) VH: QVQLVQSGAEVKKPGASVKVSCKASGYTFTSSYINWVRQAPGQGLEWMGTINAVSGSTSYAQKFQGRVTMTRDESISTAYMELSRLRSDDTAVYYCARGGWFDYWGQGTLVTVSS VL: QSALTQPASVSGSPGQSITISCTGTSSDVGSYNYVNWYQQHPGKAPKLMIYGVSKRESGVSNRFSGSKSGNTASLTISGLQAEDEADYYCGTFAGGKYYGVFGGGTKLTVL and give its measured pKd.
Reply | 9.08

Ask | Quick one: pKd of Duuranad Fab (Fab, V domains shown, Fab) VH: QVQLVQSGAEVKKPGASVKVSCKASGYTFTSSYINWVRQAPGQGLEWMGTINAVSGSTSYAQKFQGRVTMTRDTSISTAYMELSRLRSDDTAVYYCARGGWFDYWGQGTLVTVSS VL: QSALTQPASVSGSPGQSITISCTGTSSDVGSFNYVNWYQQHPGKAPKLMIRGVSKRESGVSNRFSGSKSGNTASLTISGLQAEDEADYYCGTFAGGAYYGVFGGGTKLTVL ?
Reply | 9.44

Ask | Name the reported pKd value associated with the binder Hefaknöpfla Fab (Fab, V domains shown, Fab) VH: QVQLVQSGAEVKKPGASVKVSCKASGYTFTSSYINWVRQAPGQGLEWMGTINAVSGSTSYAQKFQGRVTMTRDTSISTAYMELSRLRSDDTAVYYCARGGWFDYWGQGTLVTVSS VL: QSALTQPASVSGSPGQSITISCTGTSSDVGSKNYVNWYQQHPGKAPKLMIYGVSKRESGVSNRFSGSKSGNTASLTISGLQAEDEADYYCGTFAGGKYYGVFGGGTKLTVL
Reply | 9.64
